Biological target: OATP2B1 (Homo sapiens, UniProt O94956)
Construct: expressed in transfected cells; host or cells: A431 cells
Sequence (O94956 whole entry): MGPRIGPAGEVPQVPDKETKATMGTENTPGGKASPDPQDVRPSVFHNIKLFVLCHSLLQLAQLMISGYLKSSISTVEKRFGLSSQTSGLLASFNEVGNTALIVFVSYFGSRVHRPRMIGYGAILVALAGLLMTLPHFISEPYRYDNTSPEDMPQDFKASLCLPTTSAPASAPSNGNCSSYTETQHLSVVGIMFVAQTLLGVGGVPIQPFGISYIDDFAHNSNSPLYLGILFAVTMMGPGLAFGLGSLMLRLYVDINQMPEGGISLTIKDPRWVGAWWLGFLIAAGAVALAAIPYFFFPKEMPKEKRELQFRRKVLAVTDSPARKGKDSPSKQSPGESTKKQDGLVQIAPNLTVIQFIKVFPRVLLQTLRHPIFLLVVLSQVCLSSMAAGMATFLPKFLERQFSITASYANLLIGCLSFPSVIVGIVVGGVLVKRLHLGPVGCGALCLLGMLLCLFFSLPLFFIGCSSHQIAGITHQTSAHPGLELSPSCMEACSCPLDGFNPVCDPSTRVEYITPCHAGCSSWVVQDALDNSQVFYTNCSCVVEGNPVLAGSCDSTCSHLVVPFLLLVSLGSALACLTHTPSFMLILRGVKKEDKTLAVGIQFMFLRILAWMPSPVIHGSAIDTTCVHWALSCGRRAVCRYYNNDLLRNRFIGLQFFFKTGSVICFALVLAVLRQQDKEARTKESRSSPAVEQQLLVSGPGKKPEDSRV
Assay: Pyranine transport inhibition in A431 cells overexpressing OATP2B1
Assay type: cell-based
Settings: initial three-point screen (1, 10, 100 μM), category by concentration needed for 50% inhibition; pyranine 20 μM, 15 min, pH 5.5; read-out: IC50 (μM) OATP2B1
Measured IC50, listed per entry.

Solved cases (3 shown):
>  <Compound>
COc1cc2c(cc1NC(=O)CN1C(=O)NC(Cc3c[nH]c4ccccc34)C1=O)oc1ccccc12 (centres unmarked) [G5]

>  <IC50>
1 to 10 µM

$$$$
>  <Compound>
O=C(CN1C(=O)NC(Cc2c[nH]c3ccccc23)C1=O)Nc1ccc(OCc2ccccc2)cc1 (centres unmarked) [A6]

>  <IC50>
> 10 µM

$$$$
>  <Compound>
Cc1cccc2nc(CSc3nc4sc5c(c4c(=O)n3Cc3ccccc3)CCCC5)cn12 [C5]

>  <IC50>
> 10 µM

$$$$

What does the data say about its IC50? Entry: Cc1occc1-c1nnc(SCC(=O)c2ccc3c(c2)NC(=O)CO3)n1Cc1ccccc1 [A3]
1 to 10 µM

O=C(CSc1nc2cc(C(F)(F)F)ccc2n1Cc1ccccc1)c1ccc[nH]1 [B6] ?
> 10 µM

// repeat for CC(C)c1cc(C(=O)N2CCC(n3c(=O)[nH]c4ccccc43)CC2)c2cnn(C(C)C)c2n1 [C6] and report
1 to 10 µM

And O=C1NC2(CCCc3sccc32)C(=O)N1CC(=O)N1c2ccccc2OCC1c1ccccc1 (centres unmarked) [D2] ?
> 10 µM

Queued: O=C(CN1C(=O)NC2(CCCc3ccccc32)C1=O)Nc1nnc(C23CC4CC(CC(C4)C2)C3)s1 (centres unmarked) [D6]
1 to 10 µM

Similarly, CC(OC(=O)c1cc(Cl)c2c(c1)OCCCO2)C(=O)c1ccc2c(c1)NC(=O)CO2 (centres unmarked) [D4] ?
1 to 10 µM

Repeat with Fc1ccc(C2CC(c3cccs3)=NN2c2nc(-c3ccccc3)c3cc(Cl)ccc3n2)cc1 (centres unmarked) [A5]
> 10 µM

###

Biological target: OATP2B1 (Homo sapiens)
Construct: expressed in transfected cells; host or cells: A431 cells
Assay: Pyranine transport inhibition in A431 cells overexpressing OATP2B1
Type: cell-based
Details: initial three-point screen (1, 10, 100 μM), category by concentration needed for 50% inhibition; pyranine 20 μM, 15 min, pH 5.5; read-out: IC50 (μM) OATP2B1
Listed next: entries and their corresponding IC50.

Example entries and their recorded answers appear below.
>  <Molecule>
Cc1cc(C)n2nc(SCc3ccccc3C(=O)NCCc3ccc4c(c3)OCCO4)nc2n1

>  <IC50>
1 to 10 µM

$$$$
>  <Molecule>
O=C(/C=C/c1cn(Cc2ccccc2)nn1)N1CCCC(c2nc3ccccc3s2)C1 (centres unmarked)

>  <IC50>
1 to 10 µM

$$$$
>  <Molecule>
CCn1cnc2c1c(=O)n(CC(=O)NC1CCCC(C)C1C)c(=O)n2Cc1ccccc1 (centres unmarked)

>  <IC50>
1 to 10 µM

$$$$
>  <Molecule>
O=C(O)c1cc(/C=C/c2c(-c3ccccc3)nc3ccccn23)nc2ccccc12

>  <IC50>
< 1 µM

$$$$
>  <Molecule>
CCc1ccccc1NC(=O)CN1CCN(C(=O)c2cc(-c3ccncc3)nc3ccccc23)CC1

>  <IC50>
1 to 10 µM

$$$$
>  <Molecule>
Cc1ccc(N2C(=O)/C(=C\Nc3nc4ccccc4nc3N3CCCC3)c3ccccc3C2=O)c(C)c1

>  <IC50>
> 10 µM

$$$$
>  <Molecule>
O=C(CCN1C(=O)NC2(CCCC2)C1=O)Nc1nc(-c2ccc3c(c2)CCC3)cs1

>  <IC50>
> 10 µM

$$$$
>  <Molecule>
CC1CCN(c2nnc(SCC(=O)NCC3COc4ccccc4O3)n2C2CC2)CC1 (centres unmarked)

>  <IC50>
1 to 10 µM

$$$$

// IC50 lookup, key: `Cc1cc(NS(=O)(=O)c2ccc(NC(=O)Cc3coc4c(C)c(C)ccc34)cc2)nc(C)n1`
1 to 10 µM

Subsequent entry: `O=C(Nc1ccccc1)C1CCN(C(=O)c2cc(-c3ccccc3)nc3ccccc23)CC1`
1 to 10 µM

Would you mind doing COc1ccc(C2(c3ccc(OC)cc3)NC(=O)N(CC(=O)c3ccc4c(c3)OCO4)C2=O)cc1 [E2] as well?
1 to 10 µM

Would you kindly repeat that for CSCCC(NC(=O)c1ccco1)C(=O)OCc1cc(=O)oc2cc(O)ccc12 (centres unmarked) ?
1 to 10 µM

Then this molecule: `CC(C)(C)c1ncc(NC(=O)c2ccccc2-c2ncc(-c3ccccc3)o2)cn1`
1 to 10 µM

Item: O=C(Nc1ccccc1)N1CCCC(C(=O)N2CCN(Cc3nc4ccccc4s3)CC2)C1 (centres unmarked)
> 10 µM

`CC(=O)Nc1ccc(S(=O)(=O)Nc2nc3ccccc3nc2NCc2ccccc2)cc1` ?
> 10 µM

Next molecule: `O=C(CCc1ncc(-c2c(F)cccc2F)o1)N1CCN(S(=O)(=O)c2ccccc2F)CC1`
1 to 10 µM

Entry `O=C(NCc1ccc(N2CCOCC2)nc1)c1ccccc1CSc1nc2ccccc2[nH]1` please
1 to 10 µM
